- PROTOCOL_DESCRIPTION: Half life in rat at 1 mg/kg, iv
- Assay type: ADME, organism-based
- Set-up: dose 1 mg/kg, route intravenous
- TEST_CONTEXT: in vivo

SMILES_INPUT	READING_UNIT	half-life
CN1CC[C@H](N(C)C(=O)N2CC(c3cc(F)ccc3F)=C[C@@]2(CO)c2ccccc2)[C@H](F)C1	h	1

====

- EXPERIMENTAL_TARGET: Kinesin-1 heavy chain (Homo sapiens, UniProt P33176)
- Sequence (P33176 whole entry): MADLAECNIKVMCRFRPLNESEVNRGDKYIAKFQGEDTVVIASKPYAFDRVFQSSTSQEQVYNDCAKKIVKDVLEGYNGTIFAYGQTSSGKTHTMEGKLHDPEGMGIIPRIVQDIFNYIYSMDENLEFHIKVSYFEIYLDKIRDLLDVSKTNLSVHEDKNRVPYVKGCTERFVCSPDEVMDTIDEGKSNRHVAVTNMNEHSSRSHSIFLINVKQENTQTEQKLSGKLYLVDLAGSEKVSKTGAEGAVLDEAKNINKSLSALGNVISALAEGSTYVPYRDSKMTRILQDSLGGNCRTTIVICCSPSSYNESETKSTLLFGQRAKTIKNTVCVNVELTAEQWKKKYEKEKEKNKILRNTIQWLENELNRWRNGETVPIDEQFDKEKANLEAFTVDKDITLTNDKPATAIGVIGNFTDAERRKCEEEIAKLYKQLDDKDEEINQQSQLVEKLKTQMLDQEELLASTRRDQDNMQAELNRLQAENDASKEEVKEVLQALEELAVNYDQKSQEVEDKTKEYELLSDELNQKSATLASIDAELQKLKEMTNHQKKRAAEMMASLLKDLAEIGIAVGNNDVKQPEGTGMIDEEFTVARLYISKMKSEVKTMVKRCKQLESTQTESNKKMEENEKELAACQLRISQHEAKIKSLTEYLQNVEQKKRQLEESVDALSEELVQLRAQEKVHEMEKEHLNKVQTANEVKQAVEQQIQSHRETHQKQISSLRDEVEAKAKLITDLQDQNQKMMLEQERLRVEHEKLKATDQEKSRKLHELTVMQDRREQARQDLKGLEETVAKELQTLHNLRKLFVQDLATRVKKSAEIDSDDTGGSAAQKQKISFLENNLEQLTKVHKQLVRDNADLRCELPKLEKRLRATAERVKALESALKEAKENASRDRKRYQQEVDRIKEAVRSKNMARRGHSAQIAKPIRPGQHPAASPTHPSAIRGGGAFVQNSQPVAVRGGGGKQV

SMILES_INPUT	IC50
CN1CC[C@H](N(C)C(=O)N2CC(c3cc(F)ccc3F)=C[C@@]2(CO)c2ccccc2)[C@H](F)C1	> 50 µM

====

Target protein (sequence): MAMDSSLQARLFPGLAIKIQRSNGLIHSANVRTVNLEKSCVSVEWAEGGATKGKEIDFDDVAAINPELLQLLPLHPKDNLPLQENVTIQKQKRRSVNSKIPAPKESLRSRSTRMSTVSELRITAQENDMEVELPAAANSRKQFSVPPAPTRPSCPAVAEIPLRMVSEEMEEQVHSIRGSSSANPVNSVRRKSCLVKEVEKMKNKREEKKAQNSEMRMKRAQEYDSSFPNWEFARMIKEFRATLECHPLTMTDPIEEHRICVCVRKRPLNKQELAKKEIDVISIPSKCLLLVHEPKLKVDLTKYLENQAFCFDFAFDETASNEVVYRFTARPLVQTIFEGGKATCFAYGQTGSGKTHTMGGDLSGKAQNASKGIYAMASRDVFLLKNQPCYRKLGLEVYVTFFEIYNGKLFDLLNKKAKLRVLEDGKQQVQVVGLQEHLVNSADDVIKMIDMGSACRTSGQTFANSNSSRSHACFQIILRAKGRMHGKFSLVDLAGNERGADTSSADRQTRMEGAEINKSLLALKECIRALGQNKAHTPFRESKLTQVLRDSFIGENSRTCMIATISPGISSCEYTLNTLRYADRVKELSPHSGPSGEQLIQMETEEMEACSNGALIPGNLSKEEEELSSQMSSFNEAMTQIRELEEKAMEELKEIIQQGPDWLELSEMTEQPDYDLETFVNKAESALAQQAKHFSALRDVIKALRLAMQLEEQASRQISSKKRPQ
pIC50: −log10 of the molar value.
MEASUREMENT_LABEL: pIC50

SMILES_INPUT	MEASUREMENT_LABEL	REPORTED
CN1CC[C@H](N(C)C(=O)N2CC(c3cc(F)ccc3F)=C[C@@]2(CO)c2ccccc2)[C@H](F)C1	pIC50	< 4.30

====

- PROTOCOL_DESCRIPTION: Clearance in dog at 0.4 mg/kg, iv
- Type: ADME, organism-based, Canis lupus familiaris
- Set-up: dose 0.4 mg/kg, route intravenous
- TEST_CONTEXT: in vivo

SMILES_INPUT	clearance, mL/min/kg
CN1CC[C@H](N(C)C(=O)N2CC(c3cc(F)ccc3F)=C[C@@]2(CO)c2ccccc2)[C@H](F)C1	15.1

====

- EXPERIMENTAL_TARGET: UniProt:Q02224
- Sequence (Q02224 whole entry): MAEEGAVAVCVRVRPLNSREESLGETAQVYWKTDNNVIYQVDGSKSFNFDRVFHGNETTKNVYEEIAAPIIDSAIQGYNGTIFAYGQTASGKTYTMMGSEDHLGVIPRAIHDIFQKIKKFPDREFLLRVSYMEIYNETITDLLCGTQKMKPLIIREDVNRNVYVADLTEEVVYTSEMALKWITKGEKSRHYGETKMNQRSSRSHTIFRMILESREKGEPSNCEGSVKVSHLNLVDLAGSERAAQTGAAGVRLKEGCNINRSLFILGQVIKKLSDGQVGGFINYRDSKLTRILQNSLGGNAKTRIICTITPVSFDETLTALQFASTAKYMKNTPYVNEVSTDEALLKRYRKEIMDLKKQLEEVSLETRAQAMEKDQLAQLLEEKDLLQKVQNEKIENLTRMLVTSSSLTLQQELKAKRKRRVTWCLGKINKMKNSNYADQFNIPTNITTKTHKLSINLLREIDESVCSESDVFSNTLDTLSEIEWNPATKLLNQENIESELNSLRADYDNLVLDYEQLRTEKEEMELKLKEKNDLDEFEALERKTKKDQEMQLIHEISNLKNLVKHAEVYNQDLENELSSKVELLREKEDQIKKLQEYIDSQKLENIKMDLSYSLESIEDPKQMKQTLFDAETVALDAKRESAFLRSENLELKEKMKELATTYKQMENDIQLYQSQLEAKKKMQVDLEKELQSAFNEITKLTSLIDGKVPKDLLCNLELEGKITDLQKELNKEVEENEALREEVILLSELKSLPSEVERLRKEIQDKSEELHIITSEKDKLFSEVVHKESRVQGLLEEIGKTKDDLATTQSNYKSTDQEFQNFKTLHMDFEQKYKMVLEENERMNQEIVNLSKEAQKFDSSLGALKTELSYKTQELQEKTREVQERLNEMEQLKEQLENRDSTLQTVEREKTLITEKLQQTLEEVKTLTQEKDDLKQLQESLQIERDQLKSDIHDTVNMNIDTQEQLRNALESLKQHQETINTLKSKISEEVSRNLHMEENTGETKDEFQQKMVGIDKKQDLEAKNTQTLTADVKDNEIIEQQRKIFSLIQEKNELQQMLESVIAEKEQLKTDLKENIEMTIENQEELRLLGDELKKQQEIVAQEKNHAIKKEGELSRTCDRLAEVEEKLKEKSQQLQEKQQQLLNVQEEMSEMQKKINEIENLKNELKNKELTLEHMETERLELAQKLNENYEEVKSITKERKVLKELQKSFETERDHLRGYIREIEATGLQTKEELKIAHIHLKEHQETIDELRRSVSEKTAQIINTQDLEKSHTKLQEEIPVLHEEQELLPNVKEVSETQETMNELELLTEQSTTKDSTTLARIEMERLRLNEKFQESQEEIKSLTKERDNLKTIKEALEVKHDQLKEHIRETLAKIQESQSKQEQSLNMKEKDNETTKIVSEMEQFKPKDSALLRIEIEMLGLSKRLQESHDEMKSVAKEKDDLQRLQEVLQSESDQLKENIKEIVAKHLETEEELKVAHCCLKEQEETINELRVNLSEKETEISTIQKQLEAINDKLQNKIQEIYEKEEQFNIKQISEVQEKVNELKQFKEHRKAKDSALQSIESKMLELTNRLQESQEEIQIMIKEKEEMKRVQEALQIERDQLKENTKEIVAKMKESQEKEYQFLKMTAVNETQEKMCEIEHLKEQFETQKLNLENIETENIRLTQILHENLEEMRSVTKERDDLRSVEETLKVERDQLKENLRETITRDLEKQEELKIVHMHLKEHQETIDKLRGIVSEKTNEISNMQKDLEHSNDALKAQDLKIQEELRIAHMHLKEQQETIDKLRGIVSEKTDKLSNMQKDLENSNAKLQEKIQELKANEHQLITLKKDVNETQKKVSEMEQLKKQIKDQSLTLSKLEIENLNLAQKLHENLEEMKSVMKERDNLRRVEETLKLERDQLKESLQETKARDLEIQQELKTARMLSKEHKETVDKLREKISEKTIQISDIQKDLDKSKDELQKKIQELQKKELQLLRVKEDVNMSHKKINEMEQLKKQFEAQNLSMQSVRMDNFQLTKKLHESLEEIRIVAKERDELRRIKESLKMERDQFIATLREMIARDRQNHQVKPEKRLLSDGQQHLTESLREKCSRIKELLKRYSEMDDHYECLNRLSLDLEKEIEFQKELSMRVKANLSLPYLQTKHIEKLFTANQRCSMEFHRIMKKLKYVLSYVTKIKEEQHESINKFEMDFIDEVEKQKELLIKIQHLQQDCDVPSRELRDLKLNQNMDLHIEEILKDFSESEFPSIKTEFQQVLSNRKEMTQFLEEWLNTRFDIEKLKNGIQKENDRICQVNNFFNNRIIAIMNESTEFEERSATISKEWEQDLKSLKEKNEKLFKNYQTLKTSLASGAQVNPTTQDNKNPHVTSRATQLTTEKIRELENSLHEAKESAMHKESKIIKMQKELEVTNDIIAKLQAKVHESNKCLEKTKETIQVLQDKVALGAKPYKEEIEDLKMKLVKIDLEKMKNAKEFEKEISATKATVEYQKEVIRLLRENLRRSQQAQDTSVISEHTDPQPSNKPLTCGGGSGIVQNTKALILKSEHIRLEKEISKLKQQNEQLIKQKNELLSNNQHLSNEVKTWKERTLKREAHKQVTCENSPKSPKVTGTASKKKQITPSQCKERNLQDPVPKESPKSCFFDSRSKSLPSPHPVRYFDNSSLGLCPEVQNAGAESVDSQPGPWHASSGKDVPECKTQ
MEASUREMENT_LABEL: IC50

SMILES_INPUT	MEASUREMENT_LABEL	REPORTED
CN1CC[C@H](N(C)C(=O)N2CC(c3cc(F)ccc3F)=C[C@@]2(CO)c2ccccc2)[C@H](F)C1	IC50	> 50 µM
